The measurements presented in this section are drawn from paper PMC2756588.

- assayed target: Bem1-1, P29366
- Sequence (P29366 55-141): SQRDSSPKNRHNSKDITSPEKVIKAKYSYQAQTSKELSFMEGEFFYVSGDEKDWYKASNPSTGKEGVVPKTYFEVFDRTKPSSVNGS
- assay overview: SPOT array
- reported conditions: median of control spots 4282
experimental endpoint: SPOT intensity

- PPPPPPPPPPPLPQS: 0
- RRASLFPRDPKRLRP: 0
- WTQRRGPLVVYAEDN: 0
- FPPKRKPLLRPQRSD: 1
- SNRRPVPRRPSQPLN: 1
- IAPIPMPKPNPTHIS: 0
- ILARAILTIPRVLDK: 1
